Molecular target: DCAF1(WDR) with additional 10 µM BRD9-BD(130-250) (Homo sapiens, UniProt Q9H8M2+Q9Y4B6, E1398S)
Construct: 2 nM human DCAF1(1073-1399)_E1398S-Avi-His; human BRD9-BD(130-250) in the cooperative assay; His6 (C); GST (PreScission site) (N, cleaved yes); made in house; host or cells: DCAF1: Sf9 with BirA; BRD9: E. coli Rosetta (pGEX6P1)
Sequence (Q9Y4B6 1073-1399 E1398S): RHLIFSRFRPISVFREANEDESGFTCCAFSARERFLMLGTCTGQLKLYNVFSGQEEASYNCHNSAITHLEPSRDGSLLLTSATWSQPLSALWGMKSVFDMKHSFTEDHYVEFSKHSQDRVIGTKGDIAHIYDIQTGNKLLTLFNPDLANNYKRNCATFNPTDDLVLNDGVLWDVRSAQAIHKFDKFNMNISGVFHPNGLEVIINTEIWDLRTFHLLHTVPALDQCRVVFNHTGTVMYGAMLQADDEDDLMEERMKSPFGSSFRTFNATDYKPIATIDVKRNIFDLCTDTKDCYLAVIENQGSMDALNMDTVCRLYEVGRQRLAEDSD
Sequence (Q9H8M2 130-250): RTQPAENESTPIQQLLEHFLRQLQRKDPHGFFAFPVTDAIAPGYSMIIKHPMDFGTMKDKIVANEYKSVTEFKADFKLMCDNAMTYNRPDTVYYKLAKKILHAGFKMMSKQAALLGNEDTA
Test: DCAF1 TR-FRET, cooperative format with 10 µM BRD9-BD(130-250)
Type: binding
Settings: read-out: TR-FRET Q. IC50 [μM], + BRD9
Procedure: Competition assay conditions consist of 20 µL total volume in white 384-well plates (Greiner), in 30 mM phosphate buffer pH 7.4 containing 140 mM NaCl, 0.01% Tween20, 1 mM TCEP and 1% final DMSO. […] Samples were then incubated at 22 °C for 30 min before reading using a Tecan infinite M-1000 or PheraStar FSX (excitation 340 nm, emission 490 and 520 nm). […]
assay.endpoint: IC50 (µM)
One number for each entry, in µM.

Name the recorded IC50 for COc1cc(-c2cn(C)c(=O)c3cnccc23)c(OC)cc1CN1CCC(OCCCCCC(=O)N2CCN(c3ccc4c(NCCN)nc(C5(c6ccc(Cl)cc6)CCCCC5)nc4c3)CC2)CC1 .
0.002

---

Molecular target: UniProt:Q06187
Sequence (Q06187 2-659 limits assumed): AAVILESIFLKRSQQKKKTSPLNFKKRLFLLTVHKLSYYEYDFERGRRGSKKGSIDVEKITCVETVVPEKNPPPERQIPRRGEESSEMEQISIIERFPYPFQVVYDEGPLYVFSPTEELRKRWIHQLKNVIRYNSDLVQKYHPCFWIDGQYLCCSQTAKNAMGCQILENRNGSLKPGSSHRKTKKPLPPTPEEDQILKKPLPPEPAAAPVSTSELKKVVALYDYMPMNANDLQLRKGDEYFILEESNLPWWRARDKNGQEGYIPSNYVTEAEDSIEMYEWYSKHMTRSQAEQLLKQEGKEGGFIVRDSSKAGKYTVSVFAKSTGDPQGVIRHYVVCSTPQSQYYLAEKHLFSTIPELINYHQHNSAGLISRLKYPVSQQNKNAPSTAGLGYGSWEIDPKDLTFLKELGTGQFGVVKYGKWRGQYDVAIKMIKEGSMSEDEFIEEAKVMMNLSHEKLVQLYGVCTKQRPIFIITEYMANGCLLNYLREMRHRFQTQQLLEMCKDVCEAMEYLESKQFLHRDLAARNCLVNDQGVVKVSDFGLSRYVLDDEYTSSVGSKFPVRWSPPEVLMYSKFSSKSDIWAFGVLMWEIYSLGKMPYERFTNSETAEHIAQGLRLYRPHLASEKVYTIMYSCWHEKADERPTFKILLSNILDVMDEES
Assay: BTK-GFP degradation by flow cytometry in TMD8 BTK-GFP/mCh cells
Type: cell-based
Set-up: performed with full-length BTK and endogenous DCAF1; expressed in transfected cells; host or cells: TMD8 cells, lentiviral, blasticidin-selected (TMD8 BTK-GFP/mCh)
Conditions: TMD8 BTK-GFP/mCh, 24 h
Can you tell me max. BTK degradation (%) for the items I'm about to list?
Numbers only, in %.

[
  {
    "structure.smiles": "CC(=O)N1CCN(c2ccc3c(NCCN)nc(C4(c5ccc(Cl)cc5)CCCCC4)nc3c2)CC1",
    "result.number": 0
  },
  {
    "structure.smiles": "Cc1c(NC(=O)c2ccc(C(C)(C)O)cc2F)cc(F)cc1-c1ncnc2[nH]c(-c3ccc(CNCCOCCOCCOCCOCCOCCOCCOCCOCCOCCOCCOCCOCCC(=O)N4CCN(c5ccc6c(NCCN)nc(C7(c8ccc(Cl)cc8)CCCCC7)nc6c5)CC4)cc3)cc12",
    "result.number": 100
  },
  {
    "structure.smiles": "Cc1c(NC(=O)N2CC(O)(CC(C)(C)C)C2)cc(F)cc1-c1ncnc2[nH]c(-c3cnn(CC(=O)N4CCC5(CCNCC5)CC4)c3)cc12",
    "result.number": 0
  }
]

Please find the next compound below.
Name the recorded max. BTK degradation (%) for Cc1c(NC(=O)N2CC(O)(CC(C)(C)C)C2)cc(F)cc1-c1ncnc2[nH]c(-c3cnn(CC(=O)N4CCC5(CC4)CN(CCNC(=O)CCCC(=O)N4CCN(c6ccc7c(NCCN)nc(C8(c9ccc(Cl)cc9)CCCCC8)nc7c6)CC4)CCO5)c3)cc12 .
94

---

Target: DCAF1(WDR) (Homo sapiens, UniProt Q9Y4B6, E1398S)
Construct: His6 (C); made in house; host or cells: Sf9 insect cells (baculovirus), co-expressed with BirA
Test: DCAF1 TR-FRET competition assay, standard binary format
Type: binding
Conditions: binary, compound alone; spread in brackets; read-out: TR-FRET Q. IC50
assay.endpoint: IC50 (nM)
Numbers only, in nM.

[
  {
    "compound": "C#CCOCC(=O)N1CCN(c2ccc3c(NCCN)nc(C4(c5ccc(Cl)cc5)CCCCC4)nc3c2)CC1 [compound 16]",
    "unit.of.measurement": "nM",
    "IC50": 10
  },
  {
    "compound": "CC(=O)NCCOCCOCCOCCOCCOCCOCCC(=O)N1CCN(c2ccc3c(NCCN)nc(C4(c5ccc(Cl)cc5)CCCC4)nc3c2)CC1 [compound 15]",
    "unit.of.measurement": "nM",
    "IC50": 20
  }
]

Please find the next compound below.
Name the recorded IC50 for COc1cc(-c2cn(C)c(=O)c3cnccc23)c(OC)cc1CN1CCC(OCCCCCC(=O)N2CCN(c3ccc4c(NCCN)nc(C5(c6ccc(Cl)cc6)CCCCC5)nc4c3)CC2)CC1 [DBr-1] .
38
